system: A-549 cells; assay: Cell cycle distribution by flow cytometry; assay type: cell-based, human; conditions: A-549, 24 h, 75 μM
A collection of compounds and their measured G0/G1
Measurement Label: G0/G1 (%)

> print(dat)
                               given.smiles  measurement.label  unit.info  measurement
1  COc1ccc(/C=C\c2cc(OC)c(OC)c(OC)c2)cc1OCC(=O)NCC(=O)O              G0/G1          %           68
2  COc1ccc(/C=C\c2cc(OC)c(OC)c(OC)c2)cc1OCC(=O)N1CCC[C@H]1C(=O)O              G0/G1          %           72
3  COc1ccc(/C=C\c2cc(OC)c(OC)c(OC)c2)cc1OCC(=O)N1CCC[C@@H]1C(=O)O              G0/G1          %           71
